Assay Overview: Ratio of drug level in brain to blood in C57BL/6 mouse at 260.935 mg/kg, ip measured after 1 hr by LC-MS/MS analysis
Assay type: ADME, organism-based
Set-up: dose 260.935 mg/kg, route intraperitoneal
Experimental Context: 260.94 mg/kg
Readout Label: Kp at 1 h
One number for each entry.

{"Molecule": "CC(=O)Oc1ccccc1C(=O)NC12CC3CC(CC(C3)C1)C2", "Kp at 1 h": 0.49}

Let us examine a further case.
# input Fill blank: measured Kp at 1 h of the molecule CC(C)Cc1ccc(C(C)C(=O)O)cc1 (configuration not stated) is ____.
# output 0.9

###

Tested on: Brain
Assay Overview: Drug level in C57BL/6 mouse brain assessed as total salicylate at 150 mg/kg, ip measured after 1 hr by LC-MS/MS analysis
Assay type: ADME, organism-based
Set-up: dose 150 mg/kg, route intraperitoneal
Experimental Context: in vivo
Readout Label: Drug uptake (ng/mL)
Give bare numbers, in ng/mL.

# input Fill blank: measured Drug uptake of the molecule CC(=O)Oc1ccccc1C(=O)O [ASPIRIN] is ____.
# output 24.6

###

Assay Overview: Drug level in C57BL/6 mouse brain at 150 mg/kg, ip measured after 1 hr by LC-MS/MS analysis
Format: ADME, organism-based
Design: dose 150 mg/kg, route intraperitoneal
Experimental Context: read-out: Drug uptake
Readout Label: concentration at 1 h (ng/mL)
One number for each entry, in ng/mL.

# input Fill blank: measured concentration at 1 h of the molecule CC(=O)Oc1ccccc1C(=O)O is ____.
# output 22.5

###

Assay Overview: Drug level in C57BL/6 mouse blood at 150 mg/kg, ip measured after 1 hr by LC-MS/MS analysis
Type: ADME, organism-based
Set-up: dose 150 mg/kg, route intraperitoneal
Experimental Context: read-out: Drug uptake
Readout Label: concentration at 1 h (ng/mL)
One number for each entry, in ng/mL.

# input Fill blank: measured concentration at 1 h of the molecule CC(=O)Oc1ccccc1C(=O)O is ____.
# output 45.5

###

Assay Overview: Drug level in C57BL/6 mouse blood at 260.935 mg/kg, ip measured after 1 hr by LC-MS/MS analysis
Assay type: ADME, organism-based
Parameters: dose 260.935 mg/kg, route intraperitoneal
Experimental Context: 260.94 mg/kg, read-out: Drug uptake
Provide the recorded concentration at 1 h for the entries that follow.

{"Compound": "CC(C)Cc1ccc(C(C)C(=O)O)cc1 (configuration not stated) [IBUPROFEN]", "concentration at 1 h": "61.4 ng/mL"}

Let us examine a further case.
# input Fill blank: measured concentration at 1 h of the compound CC(=O)Oc1ccccc1C(=O)NC12CC3CC(CC(C3)C1)C2 is ____.
# output 17.4 ng/mL
